Numbers sourced from patent US12133855B2.

experiment: TEM size of lipidoid nanoparticles; format: physicochemical; details: TEM images of LNPs
measurement_kind: size measured by TEM (nm)
Express the result in nm but write the number alone.

INSERT INTO measurements (compound, measurement_kind, val) VALUES
  ('CCN(CC)CCCN(CCC(=O)OCCSSCCNC(=O)OC1CCC2(C)C(=CCC3C2CCC2(C)C(C(C)CCCC(C)C)CCC32)C1)CCC(=O)OCCSSCCNC(=O)OC1CCC2(C)C(=CCC3C2CCC2(C)C(C(C)CCCC(C)C)CCC32)C1 (centres unmarked)', 'size measured by TEM', 216.9),
  ('CCCCCCCCCCCCCC[Se]CCOC(=O)CCN(CCC(=O)OCC[Se]CCCCCCCCCCCCCC)CCN1CCCC1 [Lipidoid 76-O17Se]', 'size measured by TEM', 133),
  ('CC(C)CCCC(C)C1CCC2C3CC=C4CC(OC(=O)NCCSSCCOC(=O)CCN(C)CCN(CCN(C)CCC(=O)OCCSSCCNC(=O)OC5CCC6(C)C(=CCC7C6CCC6(C)C(C(C)CCCC(C)C)CCC76)C5)CCN(C)CCC(=O)OCCSSCCNC(=O)OC5CCC6(C)C(=CCC7C6CCC6(C)C(C(C)CCCC(C)C)CCC76)C5)CCC4(C)C3CCC12C (centres unmarked)', 'size measured by TEM', 394.0);

Q. Reported size measured by TEM, compound CCCCCCCCCCCCCCOCCOC(=O)CCN(CCC(=O)OCCOCCCCCCCCCCCCCC)CCN1CCCC1 [Lipidoid 76-O17O] : ____
A. 145

Q. Moving on to the next compound: CCCCCCCCCCCCCCSCCOC(=O)CCN(CCC(=O)OCCSCCCCCCCCCCCCCC)CCN1CCCC1 [Lipidoid 76-O17S]
A. 94

---

Below, each entry is listed alongside its reported cell viability.
system: GFP-HEK cells
Give just the numeric value; % need not be written.

Q. Which measured cell viability belongs to CCCCCCCCCCCCCC[Se]CCOC(=O)CCN(CCC(=O)OCC[Se]CCCCCCCCCCCCCC)CCN1CCCC1 [Lipidoid 76-O17Se] , tested on GFP-HEK cells?
A. 76.3

Q. What about CCCCCCCCCCCCCC[Se]CCOC(=O)CCN(CCCN(C)C)CCC(=O)OCC[Se]CCCCCCCCCCCCCC [Lipidoid 80-O17Se] ?
A. 68.2

Q. Try this molecule next: CCCCCCCCCCCCCC[Se]CCOC(=O)CCN(CCCN(C)C)CCCN(CCC(=O)OCC[Se]CCCCCCCCCCCCCC)CCC(=O)OCC[Se]CCCCCCCCCCCCCC [Lipidoid 400-O17Se]
A. 66.7

Q. Entry CCCCCCCCCCCCCC[Se]CCOC(=O)CCN(CCCN(CC)CC)CCC(=O)OCC[Se]CCCCCCCCCCCCCC [Lipidoid 81-O17Se] please
A. 97.7

---

Documented GFP positive (GFP^+) cells across a set of molecules
system: HeLa-DsRed cells; assay type: cell-based; details: (−30)GFP-Cre 100 nM, lipid 6.6 μg mL^−1
# output: bare number, implied unit %

INSERT INTO measurements (molecule, measurement_kind, val) VALUES
  ('CC(C)CCCC(C)C1CCC2C3CC=C4CC(OC(=O)NCCSSCCOC(=O)CCN(CCCN(C)C)CCC(=O)OCCSSCCNC(=O)OC5CCC6(C)C(=CCC7C6CCC6(C)C(C(C)CCCC(C)C)CCC76)C5)CCC4(C)C3CCC12C (centres unmarked)', 'GFP positive (GFP^+) cells', 97.0);

Here's the next entry for you.
Q. So what does the record say about GFP positive (GFP^+) cells for CCN(CC)CCN(CCC(=O)OCCSSCCNC(=O)OC1CCC2(C)C(=CCC3C2CCC2(C)C(C(C)CCCC(C)C)CCC32)C1)CCC(=O)OCCSSCCNC(=O)OC1CCC2(C)C(=CCC3C2CCC2(C)C(C(C)CCCC(C)C)CCC32)C1 (centres unmarked) ?
A. 93.1
